TEST_SUMMARY: Patients' blood levels of naltrexone and 6-beta-naltrexone after subcutaneous pellet implant
Type: in vivo, human
EXPERIMENTAL_CONTEXT: human, blood, sc, 42 days since implant; patients' blood; pellet of Examples 1-4; read-out: Ntx level
RESULT_TYPE: concentration at 1008 h

Enquiry: For the molecule O=C1CC[C@@]2(O)[C@H]3Cc4ccc(O)c5c4[C@@]2(CCN3CC2CC2)[C@H]1O5 [naltrexone, N-cyclopropylmethylnoroxy morphone] , give its measured concentration at 1008 h value.
Return: 4 ng/mL
